Source of measurements: ChEMBL document CHEMBL1201862

As shown below, each of these molecules has a reported GI50 value.
Tested on: 786-0
assay.summary: NCI tumour cell line growth inhibition, 48 h
Active and inactive are the calls of the source. No stated cut-off is given here; in the data, active = GI50 up to about 1.1 µM and inactive = higher.
property.measured: GI50

- molecule: "Cc1ccc(S(=O)(=O)NC2C(=O)c3ccccc3C(=O)C2n2ccnc2)cc1 (stereo unspecified)"
  property.measured: "GI50"
  result: "17.4 µM (inactive)"
- molecule: "C[Si](C)(C)c1ccc(-c2sc(-c3ccc([Si](C)(C)C)s3)c3c2C[Si]2(C3)Cc3c(-c4ccc([Si](C)(C)C)s4)sc(-c4ccc([Si](C)(C)C)s4)c3C2)s1"
  property.measured: "GI50"
  result: "> 100 µM (inactive)"
- molecule: "O=C1CCCC/C1=C(\\Br)I"
  property.measured: "GI50"
  result: "19.6 µM (inactive)"
- molecule: "CC1(C)CC(=O)C(C(=O)Nc2cccs2)=C(O)C1"
  property.measured: "GI50"
  result: "49.9 µM (inactive)"
- molecule: "CCOC(=O)C1=C(C)CC2C(=O)OC(=O)C2C1(C)C (stereo unspecified)"
  property.measured: "GI50"
  result: "> 100 µM (inactive)"
- molecule: "CCOC(=O)C1(C/C=C(/C)Cl)CCCC1=O (stereo unspecified)"
  property.measured: "GI50"
  result: "> 100 µM (inactive)"
- molecule: "CCOC(=O)c1oc2ccc(OC)c3c2c1CCC3"
  property.measured: "GI50"
  result: "> 100 µM (inactive)"
- molecule: "CCOC(=O)c1cc2c([nH]1)c(OC(C)=O)cc1c2ccn1Cc1ccccc1"
  property.measured: "GI50"
  result: "> 100 µM (inactive)"
- molecule: "CC[C@@]12CCCN3CC[C@]4(c5cccc(OC)c5N(C(C)=O)[C@@H]4CC1)[C@H]32"
  property.measured: "GI50"
  result: "80.5 µM (inactive)"
- molecule: "[N-]=[N+]=CC(=O)OC1CCc2ccccc21 (stereo unspecified)"
  property.measured: "GI50"
  result: "61.9 µM (inactive)"
- molecule: "CC1(C)N=C(N)N=C(N)N1c1cccc(OCCOc2ccc([N+](=O)[O-])cc2)c1"
  property.measured: "GI50"
  result: "4.99 µM (inactive)"

* * *

As shown below, each of these compounds has a reported GI50 value.
Tested on: XF498
assay.summary: NCI tumour cell line growth inhibition, 48 h
The source made the active and inactive calls. Cut-off read from the data, not from the text of the source: active = GI50 up to about 1.1 µM and inactive = higher.

- compound: "N#C/C(=C\\c1cccc(Cl)c1Cl)c1ccccc1"
  target.or.system: "XF498"
  GI50: "> 42.3 µM (inactive)"
- compound: "CN(C)CC1CCCC(CN(C)C)C1=O (stereo unspecified)"
  target.or.system: "XF498"
  GI50: "2.09 µM (inactive)"
- compound: "CCCCCCCCC[C@@H]1CC(=O)OCC2OC(O[C@H](CCCCCCCCC)CC(=O)OCC3OC(O[C@H](CCCCCCCCC)CC(=O)OCC4OC(O1)C(O)C(O)C4O)C(O)C(O)C3O)C(O)C(O)C2O (stereo partly specified)"
  target.or.system: "XF498"
  GI50: "7.74 µM (inactive)"
- compound: "O=C1C(Cl)C(c2ccccc2)N1n1cnc2ccccc2c1=O (stereo unspecified)"
  target.or.system: "XF498"
  GI50: "> 100 µM (inactive)"
- compound: "CC(/C=C/C=C\\C=C\\C=C(/C)C(=O)NC(C)CO)=C\\C(C)C(O)/C(C)=C/C(C)CCc1ccccc1 (stereo unspecified)"
  target.or.system: "XF498"
  GI50: "7.71 µM (inactive)"
- compound: "CN(C)C(=S)/N=c1\\ssc(=S)n1C1CCCCC1"
  target.or.system: "XF498"
  GI50: "19.4 µM (inactive)"
- compound: "CCOc1ccc(/C(C=O)=C(\\Cl)c2ccc(OC)cc2)cc1"
  target.or.system: "XF498"
  GI50: "> 100 µM (inactive)"
- compound: "CNC(=O)NCCCCC(NC(C)=O)C(=O)NCc1ccccc1 (stereo unspecified)"
  target.or.system: "XF498"
  GI50: "> 100 µM (inactive)"
- compound: "Cc1nc2c3c(ccc2nc1O)C(=O)c1ccccc1C3=O"
  target.or.system: "XF498"
  GI50: "> 100 µM (inactive)"
- compound: "CCOC(=O)Nc1ccc2c(c1)N(C(=O)CCN(CC)CC)c1ccccc1S2 [ETHACIZINE]"
  target.or.system: "XF498"
  GI50: "18.1 µM (inactive)"
- compound: "CCOC(=O)C(C)NC(=O)NC12CC3CC(CC(F)(C3)C1)C2 (stereo unspecified)"
  target.or.system: "XF498"
  GI50: "27.4 µM (inactive)"
